// GST-JAK2(808-1132) (Homo sapiens, UniProt O60674) IC50 records
Quick note: give the figure in nM, leave out the unit.

Some entries whose results are on file:
INPUT SMILES: COc1ccc(Nc2nc3cccc(-c4cc(F)c(CN5CCS(=O)(=O)CC5)c(F)c4)c3o2)cc1N1CCN(C)CC1
VALUE UNIT: nM
IC50: 6.55

INPUT SMILES: Cc1cc(Nc2nc3cccc(-c4cc(F)c(CN5CCOCC5)c(F)c4)c3o2)ccc1N1CCOCC1
VALUE UNIT: nM
IC50: 11.6

INPUT SMILES: COc1cc(Nc2nc3cccc(-c4ccc(C(=O)N5CCOCC5)cc4)c3o2)cc(OC)c1OC
VALUE UNIT: nM
IC50: 8.1

INPUT SMILES: Cc1cc(Nc2nc3cccc(-c4ccc(C(=O)N5CCOCC5)c(C)c4)c3o2)ccc1CN1CCOCC1
VALUE UNIT: nM
IC50: 11.1

INPUT SMILES: Cc1cc(Nc2nc3cccc(-c4cc(F)c(CN5CCOCC5)c(F)c4)c3o2)ccc1C(=O)N(C)C
VALUE UNIT: nM
IC50: 19

Exercise: IC50 lookup needed for Cc1cc(Nc2nc3cccc(-c4cc(F)c(CN5CCS(=O)(=O)CC5)c(F)c4)c3o2)ccc1C(=O)N(C)CCN(C)C , thanks.
Key: 6.2

Exercise: Which measured IC50 value corresponds to CN1CCN(c2ccc(Nc3nc4cccc(-c5ccc(C(=O)N6CCOCC6)c(F)c5)c4o3)cc2C#N)CC1 ?
Key: 56.5

---

ASSAYED TARGET: GST-JAK2 (Homo sapiens, UniProt O60674)
Construct: the amino acid domain ASP751-VAL1129 of the JAK2 protein
Sequence (O60674 751-1129): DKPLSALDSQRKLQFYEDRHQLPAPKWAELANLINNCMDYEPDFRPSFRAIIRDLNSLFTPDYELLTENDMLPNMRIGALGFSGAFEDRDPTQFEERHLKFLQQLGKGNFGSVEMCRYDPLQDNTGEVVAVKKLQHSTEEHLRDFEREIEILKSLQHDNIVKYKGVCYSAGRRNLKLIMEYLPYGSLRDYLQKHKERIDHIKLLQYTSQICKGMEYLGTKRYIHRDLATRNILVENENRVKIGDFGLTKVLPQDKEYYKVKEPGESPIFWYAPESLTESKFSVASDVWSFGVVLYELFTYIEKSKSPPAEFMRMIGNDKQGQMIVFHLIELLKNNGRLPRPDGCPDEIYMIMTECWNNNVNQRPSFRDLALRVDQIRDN
ASSAY EXPLANATION: JAK2 kinase assay of the general description (alternative method, flash plate)
Format: biochemical
MEASUREMENT CONDITIONS: 1.0 μM ATP, read-out: IC50 with test in general description (named “alternative method to that given in the examples”) (“flash plate”)
MEASURED ENDPOINT: IC50 (nM)
Response body: numeric value in nM, unit text excluded.

INPUT SMILES: COc1cc(Nc2nc3cccc(-c4ccc(C(=O)N(C)C)cc4)c3o2)cc(OC)c1OC
REPORTED RESULT: 140
--
INPUT SMILES: COc1cc(Nc2nc3cccc(-c4ccc(C(=O)N5CCOCC5)cc4)c3o2)cc(OC)c1OC
REPORTED RESULT: 220
--
INPUT SMILES: CNS(=O)(=O)c1ccc(-c2cccc3nc(Nc4ccc(OC)cc4)oc23)cc1
REPORTED RESULT: 400
--
INPUT SMILES: COc1cc(Nc2nc3cccc(-c4ccn[nH]4)c3o2)cc(OC)c1OC
REPORTED RESULT: 1000
--
INPUT SMILES: COc1cc(Nc2nc3cccc(-c4ccc(S(C)(=O)=O)cc4)c3o2)cc(OC)c1OC
REPORTED RESULT: 40

Exercise: For the molecule shown here, COc1cc(Nc2nc3cccc(-c4cccc(C)c4)c3o2)cc(OC)c1OC , give the reported IC50.
Key: 337

---

pIC50 tested on GST-JAK2(808-1132) (Homo sapiens, UniProt O60674): recorded values
Sequence (O60674 808-1132): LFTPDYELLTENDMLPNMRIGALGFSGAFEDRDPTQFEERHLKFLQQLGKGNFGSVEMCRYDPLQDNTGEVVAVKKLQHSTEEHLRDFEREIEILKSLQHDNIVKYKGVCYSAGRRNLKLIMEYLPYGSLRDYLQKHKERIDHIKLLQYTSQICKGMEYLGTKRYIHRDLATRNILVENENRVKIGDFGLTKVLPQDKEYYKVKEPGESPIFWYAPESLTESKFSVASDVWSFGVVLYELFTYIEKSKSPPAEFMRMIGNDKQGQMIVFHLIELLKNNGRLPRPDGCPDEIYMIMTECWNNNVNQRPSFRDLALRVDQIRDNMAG
// scale note: pIC50 = -log10(conc_M); give the bare number

COMPOUND: CCN1CCN(c2ccc(Nc3nc4cccc(-c5ccc(CN6CCOCC6)c(F)c5)c4o3)cc2C)CC1 [Example 87]
REPORTED RESULT: 8.32
--
COMPOUND: Cc1cc(Nc2nc3cccc(-c4cc(F)c(CN5CCS(=O)(=O)CC5)c(F)c4)c3o2)ccc1N1CCN(CCN(C)C)CC1 [Example 107]
REPORTED RESULT: 8.37
--
COMPOUND: CCN1CCN(c2ccc(Nc3nc4cccc(-c5ccc(C(=O)N6CCS(=O)(=O)CC6)cc5)c4o3)cc2C)CC1 [Example 116]
REPORTED RESULT: 7.82
--
COMPOUND: CN1CCN(c2ccc(Nc3nc4cccc(-c5ccc(C(=O)N6CCS(=O)(=O)CC6)c(F)c5)c4o3)cc2)CC1 [Example 80]
REPORTED RESULT: 8.21

Exercise: Query pIC50 on GST-JAK2(808-1132) (Homo sapiens, UniProt O60674) for Cc1cc(Nc2nc3cccc(-c4cc(F)c(CN5CCS(=O)(=O)CC5)c(F)c4)c3o2)ccc1N1CCN(C2CC2)CC1 [Example 154]
Key: 8.48

Exercise: Missing value: pIC50, GST-JAK2(808-1132) (Homo sapiens, UniProt O60674), entry Cc1cc(Nc2nc3cccc(-c4ccc(C[S+](C)[O-])cc4)c3o2)ccc1C(=O)N(C)C (stereo not shown) [Example 81] . Fill in?
Key: 7.77

Exercise: Missing value: pIC50, GST-JAK2(808-1132) (Homo sapiens, UniProt O60674), entry COc1cc(Nc2nc3cccc(-c4ccc(Cn5ccnc5)cc4)c3o2)cc(OC)c1OC [Example 136] . Fill in?
Key: 7.74
